target.desc: IκBα ubiquitinating enzyme (SCF complex: ROC1, Cullin1, Skp1, His-TrCP1; with E1, UbcH5b) (Homo sapiens, UniProt P62877+P63208+Q13616+Q9Y297)
Construct: His (polyhistidine); made in house; host or cells: insect cells (baculovirus) for the SCF complex and His-E1; E. coli for His-UBCH5b
Sequence (Q9Y297 whole entry): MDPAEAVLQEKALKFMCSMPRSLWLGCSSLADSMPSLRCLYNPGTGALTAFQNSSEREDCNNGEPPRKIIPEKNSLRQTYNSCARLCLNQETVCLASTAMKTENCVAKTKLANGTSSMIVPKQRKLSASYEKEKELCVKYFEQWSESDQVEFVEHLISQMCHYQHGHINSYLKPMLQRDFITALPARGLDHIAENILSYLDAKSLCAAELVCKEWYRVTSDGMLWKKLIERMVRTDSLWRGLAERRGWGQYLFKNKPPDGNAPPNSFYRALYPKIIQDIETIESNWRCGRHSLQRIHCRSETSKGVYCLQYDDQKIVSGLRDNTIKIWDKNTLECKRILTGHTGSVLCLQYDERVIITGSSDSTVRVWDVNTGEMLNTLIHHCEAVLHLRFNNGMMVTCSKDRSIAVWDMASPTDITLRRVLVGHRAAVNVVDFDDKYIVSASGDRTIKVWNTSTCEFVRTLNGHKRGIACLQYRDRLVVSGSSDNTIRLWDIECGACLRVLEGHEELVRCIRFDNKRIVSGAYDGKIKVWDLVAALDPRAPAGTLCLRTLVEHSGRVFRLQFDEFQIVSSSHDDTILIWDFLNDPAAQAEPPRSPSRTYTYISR
Sequence (Q13616 whole entry): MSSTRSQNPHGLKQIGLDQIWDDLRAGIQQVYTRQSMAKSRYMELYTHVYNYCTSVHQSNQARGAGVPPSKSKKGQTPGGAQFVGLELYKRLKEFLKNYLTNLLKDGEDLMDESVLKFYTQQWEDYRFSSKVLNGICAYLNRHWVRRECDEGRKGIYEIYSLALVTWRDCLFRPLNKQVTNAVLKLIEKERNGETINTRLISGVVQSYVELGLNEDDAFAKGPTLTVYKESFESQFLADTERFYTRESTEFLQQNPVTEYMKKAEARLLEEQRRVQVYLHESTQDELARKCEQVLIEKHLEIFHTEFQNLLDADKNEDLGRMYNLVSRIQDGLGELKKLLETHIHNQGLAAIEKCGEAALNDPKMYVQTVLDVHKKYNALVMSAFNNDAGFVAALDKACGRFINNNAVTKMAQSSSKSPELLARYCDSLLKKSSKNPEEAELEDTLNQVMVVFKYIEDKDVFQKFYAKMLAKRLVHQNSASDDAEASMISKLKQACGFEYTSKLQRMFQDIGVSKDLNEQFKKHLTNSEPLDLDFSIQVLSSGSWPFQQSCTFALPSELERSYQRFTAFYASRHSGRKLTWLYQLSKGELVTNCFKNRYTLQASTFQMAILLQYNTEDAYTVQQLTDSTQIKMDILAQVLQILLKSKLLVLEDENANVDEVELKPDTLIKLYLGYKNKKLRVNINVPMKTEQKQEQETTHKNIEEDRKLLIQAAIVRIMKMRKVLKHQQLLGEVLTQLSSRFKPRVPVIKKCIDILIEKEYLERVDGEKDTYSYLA
Sequence (P63208 whole entry): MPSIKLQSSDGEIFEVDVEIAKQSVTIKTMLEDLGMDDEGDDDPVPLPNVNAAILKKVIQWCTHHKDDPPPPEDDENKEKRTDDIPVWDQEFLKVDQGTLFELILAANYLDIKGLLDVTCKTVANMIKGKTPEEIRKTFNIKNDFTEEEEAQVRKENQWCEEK
Sequence (P62877 whole entry): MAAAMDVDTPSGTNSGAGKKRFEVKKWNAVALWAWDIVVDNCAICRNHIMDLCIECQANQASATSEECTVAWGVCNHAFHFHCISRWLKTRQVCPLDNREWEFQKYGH
protocol.notes: Measurement of ubiquitinating enzyme activity (IκBα ubiquitination, time-resolved fluorescence with Eu(K)-labeled ubiquitin and XL665-labeled anti-GST antibody)
Format: biochemical
measurement.conditions: enzyme activity inhibition test, method (1), Table 5; read-out: EVALUATION
measured.metric: IC50

- CC1=NN(c2cccc(S(N)(=O)=O)c2)C(=O)/C1=C\c1ccc(N2CCC(CO)CC2)cc1: < 40 µM
- CN1CCN(c2ccc(/C=C3\C(=O)N(c4ccccc4)N=C3C3CC3)cc2)CC1: 10 to 20 µM
- O=C(O)c1ccc(N2N=C(c3ccoc3)/C(=C/c3ccc(-c4ccccc4F)o3)C2=O)cc1: < 10 µM
- O=C(O)c1ccc(N2N=C(c3ccoc3)/C(=C/c3ccc4c(c3)OCO4)C2=O)cc1: < 10 µM
- CC1=NN(c2ccc(C(=O)O)cc2)C(=O)/C1=C\c1ccc(N2CCC(CO)CC2)cc1: 10 to 20 µM
- CCCCC1=NN(c2ccc(C(=O)O)cc2)C(=O)/C1=C\c1ccc(-n2cccn2)cc1: < 10 µM
- CC1=NN(c2ccc(C(=O)O)cc2)C(=O)/C1=C\c1ccc(N2CCCCC2)cc1: < 10 µM
- CC1=NN(c2cccc(C(=O)N3CCCC3CO)c2)C(=O)/C1=C\c1ccc2[nH]ccc2c1 (centres unmarked): < 10 µM

====

target.desc: IκBα ubiquitinating enzyme (SCF complex: ROC1, Cullin1, Skp1, His-TrCP1; with E1, UbcH5b) (Homo sapiens, UniProt P62877+P63208+Q13616+Q9Y297)
Construct: His (polyhistidine); made in house; host or cells: insect cells (baculovirus) for the SCF complex and His-E1; E. coli for His-UBCH5b
protocol.notes: Measurement of ubiquitinating enzyme activity (IκBα ubiquitination, time-resolved fluorescence with Eu(K)-labeled ubiquitin and XL665-labeled anti-GST antibody)
Format: biochemical
measurement.conditions: enzyme activity inhibition test, method (1), Table 5; read-out: EVALUATION
measured.metric: IC50

* CC1=NN(c2ccc(S(N)(=O)=O)cc2)C(=O)/C1=C\c1ccc(C(C)(C)C)cc1 [Compound 115] | < 10 µM
* CCCCC1=NN(c2ccccc2)C(=O)/C1=C\c1nccs1 [Compound 105] | < 40 µM
* CC1=NN(c2cccc(C(=O)O)c2)C(=O)/C1=C\c1ccc(N2CCN(C(=O)c3ccoc3)CC2)cc1 [Compound 444] | < 10 µM
* CC1=NN(c2ccc(C(=O)O)cc2)C(=O)/C1=C\c1ccc2cc[nH]c2c1 [Compound 380] | < 10 µM
* CC(=O)OCc1ccc(/C=C2\C(=O)N(c3cccc(C(=O)O)c3)N=C2C)o1 [Compound 516] | < 40 µM
* CC(=O)N1CCN(c2ccc(/C=C3\C(=O)N(c4cccc(C(=O)O)c4)N=C3C)cc2)CC1 [Compound 442] | < 10 µM
* CCCCC1=NN(c2ccccc2)C(=O)/C1=C\c1ccc(O)c(OC)c1 [Compound 50] | 10 to 20 µM
* COc1cc(/C=C2\C(=O)N(c3ccc(C(=O)O)cc3)N=C2Cc2ccccc2)ccc1OCc1ccccc1 [Compound 265] | 10 to 20 µM

====

Recorded pIC50, one value per entry.
target.desc: IκBα ubiquitinating enzyme (SCF complex: ROC1, Cullin1, Skp1, His-TrCP1; with E1, UbcH5b) (Homo sapiens, UniProt P62877+P63208+Q13616+Q9Y297)
Construct: His (polyhistidine); made in house; host or cells: insect cells (baculovirus) for the SCF complex and His-E1; E. coli for His-UBCH5b
protocol.notes: Measurement of ubiquitinating enzyme activity (IκBα ubiquitination, time-resolved fluorescence with Eu(K)-labeled ubiquitin and XL665-labeled anti-GST antibody)
Assay type: biochemical
pIC50: −log10 of the molar value.
measured.metric: pIC50

* CC1=NN(c2ccc(C(=O)O)cc2)C(=O)C1=Cc1ccc(OCc2ccc([N+](=O)[O-])cc2)cc1 | > 5.00
* CCCNC(=O)COc1ccc(C=C2C(=O)N(c3ccc(S(N)(=O)=O)cc3)N=C2C)cc1 | 4.70 to 5.00
* COC(=O)N1CCN(c2ccc(C=C3C(=O)N(c4ccc(C(=O)O)cc4)N=C3C)cc2)CC1 | > 5.00
* COC(=O)N1CCN(c2ccc(C=C3C(=O)N(c4ccc(C(=O)O)cc4)N=C3c3ccoc3)cc2)CC1 | > 5.00
* CCCNC(=O)COc1ccc(C=C2C(=O)N(c3ccccc3)N=C2C)cc1 | 4.70 to 5.00
* CC1=NN(c2ccc(S(N)(=O)=O)cc2)C(=O)C1=Cc1cccc2ccccc12 | 4.70 to 5.00
* CC1=NN(c2ccc(S(N)(=O)=O)cc2)C(=O)C1=Cc1ccc(NC(=O)c2ccccc2F)cc1 | > 5.00
* COc1cc(C=C2C(=O)N(c3cccc4ccccc34)N=C2C)ccc1O | > 5.00
* COc1cc(C=C2C(=O)N(Cc3ccccc3)N=C2C)ccc1O | > 5.00
* CC(C)=CC(=O)Nc1ccc(C=C2C(=O)N(c3ccc(S(N)(=O)=O)cc3)N=C2C)cc1 | 4.70 to 5.00
* CCCCC1=NN(c2ccccc2)C(=O)C1=Cc1ccc(-n2cccn2)cc1 | > 5.00
* CC1=NN(c2ccc(S(N)(=O)=O)cc2)C(=O)C1=Cc1ccc(OCC(=O)Nc2ccccc2)cc1 | > 5.00
* COc1ccc(C2=NN(c3ccc(C(=O)O)cc3)C(=O)C2=Cc2ccc3ccccc3c2)cc1OC | 4.70 to 5.00
* COC(=O)N1CCN(c2ccc(C=C3C(=O)N(c4ccccc4)N=C3C3CC3)cc2)CC1 | 4.70 to 5.00
* CC1=NN(c2ccc(S(N)(=O)=O)cc2)C(=O)C1=Cc1ccc(NC(=O)c2ccc(F)cc2)cc1 | > 5.00

====

target.desc: IκBα ubiquitinating enzyme (SCF complex: ROC1, Cullin1, Skp1, His-TrCP1; with E1, UbcH5b) (Homo sapiens, UniProt P62877+P63208+Q13616+Q9Y297)
Construct: His (polyhistidine); made in house; host or cells: insect cells (baculovirus) for the SCF complex and His-E1; E. coli for His-UBCH5b
protocol.notes: Measurement of ubiquitinating enzyme activity (IκBα ubiquitination, time-resolved fluorescence with Eu(K)-labeled ubiquitin and XL665-labeled anti-GST antibody)
Type: biochemical
measurement.conditions: enzyme activity inhibition test, method (1), Table 5; read-out: EVALUATION
pIC50: −log10 of the molar value.
measured.metric: pIC50

* O=C(O)c1ccc(N2N=C(Cc3ccccc3)/C(=C/c3nccs3)C2=O)cc1 | > 4.40
* CCCCC1=NN(c2cccc(C(=O)O)c2)C(=O)/C1=C\c1ccc2c(c1)OCCO2 | 4.70 to 5.00
* CCCCC1=NN(c2cccc(C(=O)O)c2)C(=O)/C1=C\c1ccc(N2CCCC2)cc1 | 4.70 to 5.00
* O=C(O)c1ccc(N2N=C(Cc3ccccc3)/C(=C/c3ccc(-c4ccccc4F)o3)C2=O)cc1 | > 5.00
* CC1=NN(c2ccc(C(=O)N3CCOCC3)cc2)C(=O)/C1=C\c1ccc2c(c1)OCCO2 | 4.70 to 5.00
* COC(=O)N1CCN(c2ccc(/C=C3\C(=O)N(c4ccccc4)N=C3c3ccoc3)cc2)CC1 | > 5.00
* CCOC(=O)CN1CCN(c2ccc(/C=C3\C(=O)N(c4cccc(C(=O)O)c4)N=C3C)cc2)CC1 | > 4.40
* COCCC1=NN(c2ccc(C(=O)O)cc2)C(=O)/C1=C\c1ccc(-c2cnn(C)c2)o1 | 4.70 to 5.00
* COCC1=NN(c2ccc(C(=O)O)cc2)C(=O)C1=Cc1ccc(N2CCC(O)CC2)s1 | > 4.40
* CC1=NN(c2cccc(C(=O)O)c2)C(=O)/C1=C\c1cccc2cc[nH]c12 | > 5.00
* CC1=NN(c2ccc(C(=O)N3CCCCC3)cc2)C(=O)/C1=C\c1ccc2[nH]ccc2c1 | > 5.00
* O=C(O)c1ccc(N2N=C(c3ccoc3)C(=Cc3ccc(N4CCC(O)CC4)s3)C2=O)cc1 | > 4.40
* CN1CCN(c2ccc(/C=C3\C(=O)N(c4ccccc4)N=C3Cc3ccccc3)cc2)CC1 | > 4.40
* CC1=NN(c2cccc(C(=O)NC[C@H](C)O)c2)C(=O)/C1=C\c1ccc2c(c1)OCCO2 | 4.70 to 5.00
* CC1=NN(c2cccc(C(=O)O)c2)C(=O)/C1=C\c1ccc([N+](=O)[O-])o1 | > 5.00
* COc1cc(/C=C2\C(=O)N(c3ccc(C(=O)O)cc3)N=C2Cc2ccccc2)ccc1O | 4.70 to 5.00
